Reference source for all entries: ChEMBL document CHEMBL1201862

System: T47D
Test: NCI tumour cell line growth inhibition, 48 h
Calls of active or inactive are those of the source. No stated cut-off is given here; in the data, active = GI50 up to about 1.1 µM and inactive = higher.
Outcome field: choose from active, inactive

QUERY: # fetch the recorded call for O=C(OCC1OC(n2nc(Cn3nnc(-c4cccnc4)n3)n(-c3cccc4ccccc34)c2=S)C(OC(=O)c2ccccc2)C1OC(=O)c1ccccc1)c1ccccc1 (stereo not given) here
RESULT: inactive

QUERY: Please let me know the test result on file for NS(=O)(=O)c1ccc(-c2ccc([As](=O)(O)O)cc2)cc1 .
RESULT: inactive

QUERY: How did this test come out for CC(C)(C)[C@@H]1NC(=O)CN1C(=O)OCc1ccccc1 ?
RESULT: inactive

QUERY: Outcome logged for CCn1c(=N)sc2nc3ccccc3n2c1=O in this assay:
RESULT: inactive

QUERY: Check the results log: what was the call for CCN(CC)CCC1(C(=O)OC)SCCc2ccc(C)cc21 (stereo not given) ?
RESULT: inactive

QUERY: Please share the test call associated with O=c1c2c3c(sc2nc2n1N=C(c1ccc(Br)cc1)CS2)CCCC3 .
RESULT: inactive

QUERY: // outcome(item) with item = CCc1n[nH]c(=O)n1-c1ccncc1
RESULT: inactive

QUERY: Each compound tested received a call. Report the one for Cc1cc(N2CCCC2)c([N+](=O)[O-])cc1[N+](=O)[O-] .
RESULT: inactive

QUERY: Please let me know the test result on file for CCOC(=O)C(NCc1cccc(C(F)(F)F)c1)(NC(=O)CC)C(F)(F)F (stereo not given) .
RESULT: inactive

QUERY: I would be grateful if you could indicate the recorded call for N=C1OC(CN2CCN(c3ccccc3)CC2)CN1C(=O)Nc1ccccc1 (stereo not given) .
RESULT: inactive

QUERY: // outcome(item) with item = COC(=O)/C=C1\C(=O)N(C(C)=O)c2ccccc21
RESULT: inactive

QUERY: Test call, this compound: O=C(O)c1cc(/C=C/c2ccc(O)c(O)c2)ccc1O
RESULT: inactive

QUERY: Look up the recorded call for CCCCCCCCCCCCOP(=O)(O)OP(=O)(O)OCC1OC(n2cc(C)c(=O)[nH]c2=O)CC1O (stereo not given) in this test.
RESULT: inactive

QUERY: What was the test verdict on CC(C)(C)OC(=O)N1N=CCC1c1ccccc1 (stereo not given) ?
RESULT: inactive

QUERY: Would you mind telling me which call this test gave Cn1c(=O)n2n(c1=O)C1C(=CC2)C2C=CC1n1c(=O)n(C)c(=O)n12 (stereo not given) ?
RESULT: inactive

QUERY: Each compound tested received a call. Report the one for C=C1C(=O)OC2/C=C(\CO)C(OC(C)=O)CC(O)/C(C)=C/C(OC(=O)C(C)CC)C12 (stereo not given) .
RESULT: inactive

QUERY: Just curious, what result did COc1cc(C2c3cc4c(cc3OC(NNC(N)=S)C2C)OCO4)cc(OC)c1OC (stereo not given) get here?
RESULT: inactive

QUERY: Call for entry Cc1ccc2c(O)cc(-c3cccc4ccccc34)nc2n1 :
RESULT: inactive

QUERY: // return assay outcome for CCN(c1cccc(NC(=S)Nc2ccccc2N(CC)c2cc(-c3ccccc3)no2)c1)c1cc(-c2ccccc2)no1
RESULT: inactive

QUERY: Look up the recorded call for COc1cc2oc(-c3ccc(O)cc3)c(OC3OC(C)C(O)C(O)C3O)c(=O)c2c(O)c1OC (stereo not given) in this test.
RESULT: inactive

QUERY: How did this test come out for CC1(C)C/N=C/C(C)(OCc2ccccc2)C(=O)NC(C)(C)C/N=C/C(C)(OCc2ccccc2)C(=O)N1 (stereo not given) ?
RESULT: inactive

QUERY: Outcome? CCOc1c2ccsc2c(OCC)c2ccsc12
RESULT: inactive

QUERY: # fetch the recorded call for COc1ccc(C(=C2C(=O)N(c3ccccc3)C(=O)C2=C(C)C)c2ccc(OC)cc2)cc1 here
RESULT: inactive

QUERY: Record request — test call for CC1=NN(c2nc(N)nc(/C(C#N)=C/c3ccccc3O)n2)C(C)(C)C1
RESULT: inactive

QUERY: Any idea what this test logged for CCOC(=O)Cc1csc(N/N=C2\C(=O)Nc3ccccc32)n1 ?
RESULT: inactive

QUERY: Given O=C(c1ccccc1)c1ccc(N2C(=O)/C(=C/Cc3ccco3)N=C2c2ccccc2)c(N2C(=O)/C(=C/Cc3ccco3)N=C2c2ccccc2)c1 , state the outcome it received in this test.
RESULT: inactive

QUERY: Which result was noted for this compound in the test: COc1ccc(C)c2c1N[C@](C)([C@]1(C)Nc3c(OC)ccc(C)c3C1=O)C2=O
RESULT: inactive

QUERY: Recorded test outcome, item O=C(CNc1ccc2c(=S)c3ccccc3[nH]c2c1)Nc1ccccc1-c1ccccc1NC(=O)CNc1ccc2c(=S)c3ccccc3[nH]c2c1
RESULT: inactive

QUERY: // return assay outcome for CC(=C(c1ccccc1)c1ccccc1)N1C(=O)CC(=O)N1C
RESULT: inactive

QUERY: So what was the verdict on O=C(O)c1cccc(/[As]=[As]\c2cccc(C(=O)O)c2)c1 (stereo not given) in this test?
RESULT: inactive

QUERY: For C[C@]12CC[C@@H]3c4cc(Br)c(O)c(Br)c4CC[C@H]3[C@@H]1CCC2=O , which call appears in the assay record?
RESULT: inactive

QUERY: Per the assay record, what outcome was assigned to CCC(C)C(=O)O[C@H]1C(=O)O[C@@H]2C[C@H]3C(C)=CC(=O)[C@@H](O)[C@]3(C)[C@H]3[C@@H](O)[C@H](O)[C@@]4(C)OC[C@]32[C@@H]14 (stereo not given in full) ?
RESULT: active

QUERY: Outcome? O=C(NC(=O)c1ccccc1[N+](=O)[O-])Nc1ccc(Oc2ncc(Cl)cn2)c(C(F)(F)F)c1
RESULT: inactive

QUERY: Hi, do you know how Nc1cc(OCc2ccccc2)c(OCc2ccccc2)cc1C=O came out in this test?
RESULT: inactive

QUERY: Recorded test outcome, item COC(=O)NC(Nc1ccc(C)cc1)(C(F)(F)F)C(F)(F)F
RESULT: inactive
